Tested on: DMS-114
Assay: NCI tumour cell line growth inhibition, 48 h
The source made the active and inactive calls. Cut-off read from the data, not from the text of the source: active = GI50 up to about 1.1 µM and inactive = higher.
Write down the outcome that applies. Available outcomes: active, inactive

QUERY: In this assay, the call recorded for "O=C(CCCNC(=O)OCc1ccccc1)OCc1ccc2c(c1)C(=O)c1ccccc1C2=O" was what?
RESULT: inactive

QUERY: Called result for N[C@H]1C2C3CC4C5CC(C42)C1(c1ccccc1)C53 (some centres undefined)
RESULT: inactive

QUERY: Could you please tell me the result logged for "CCOc1ccccc1/N=N/c1c(-c2ccccc2)nn(C(=O)CC(=O)Nc2cccc(Cl)c2)c1-c1ccccc1" in this assay?
RESULT: inactive

QUERY: Give the logged outcome of this assay for the following molecule: "C/N=N/N(C)C(=O)NC"
RESULT: inactive

QUERY: Entry "Cc1ccc(C)c(NC(=O)C(=O)Nn2c(S)nc3ccccc3c2=O)c1" : call = ?
RESULT: inactive

QUERY: For COc1ccc(C2C(N)=NCC2c2ccccn2)cc1 (centres undefined) , which call appears in the assay record?
RESULT: inactive

QUERY: Given "O=C1CN(C(=O)c2ccccc2)Cc2[nH]c3ccccc3c21" , state the outcome it received in this test.
RESULT: inactive

QUERY: Recorded call for "O=C(Nc1nc2ncn(CCNCc3ccccc3)c2c(=O)[nH]1)c1ccccc1" ?
RESULT: inactive

QUERY: Please share the test call associated with C/C(=N/N(C=O)C[n+]1ccccc1)C(CN(CC(C)C)CC(C)C)C(=O)Nc1ccc(C)cc1C (centres undefined) .
RESULT: inactive

QUERY: Just curious, what result did "OC1(C(Sc2ccccc2)Sc2ccccc2)CCCCCC1" get here?
RESULT: inactive

QUERY: Dear all, I need the recorded test outcome for "COC(=O)[C@@H]1c2[nH]c3ccccc3c2C[C@@H]2c3ccccc3NC(=O)[C@@H]21" , thank you.
RESULT: inactive

QUERY: Record request — test call for "O=C1c2cccc([N+](=O)[O-])c2C(=O)c2nccnc21"
RESULT: active

QUERY: Dear all, I need the recorded test outcome for "Cc1cc(C)nc(NS(=O)(=O)c2ccc(Nc3c4ccccc4nc4c(C(=O)Nc5ccc(S(N)(=O)=O)cc5)cccc34)cc2)n1" , thank you.
RESULT: inactive

---

Tested on: SF-268
Assay: NCI tumour cell line growth inhibition, 48 h
Calls of active or inactive are those of the source. No stated cut-off is given here; in the data, active = GI50 up to about 1.1 µM and inactive = higher.
API: response.call in active, inactive

// below: answered molecules
MOLECULE: CCCCCCCCCC(=O)N[C@@H](c1ccco1)[C@@H](O)C(=O)O[C@H]1C[C@@]2(O)[C@@H](OC(=O)c3ccccc3)[C@@H]3[C@]4(OC(C)=O)CO[C@@H]4C[C@H](O)[C@@]3(C)C(=O)[C@H](OC(C)=O)C(=C1C)C2(C)C
GROUP_LABEL: active
--
MOLECULE: CC1=[N+]([O-])c2ccccc2C(=O)C1=O
GROUP_LABEL: inactive
--
MOLECULE: CCCN(CCC)c1c([N+](=O)[O-])cc(C(=O)N(C)C)cc1[N+](=O)[O-]
GROUP_LABEL: inactive
--
MOLECULE: CCCCc1c2c(nc3c1CCc1cc(C=O)c(N)nc1-3)/C(=C/c1ccccc1)CCC2
GROUP_LABEL: inactive
--
MOLECULE: CCN(CC)CCNCc1cc(Cl)cc2c1OCOC2
GROUP_LABEL: inactive
--
MOLECULE: CC(C)C(OC(=O)c1ccc(NCc2cc(O)ccc2O)cc1)C(C)C
GROUP_LABEL: inactive
--
MOLECULE: CCOC(=O)C1=C(Nc2ccc(Cl)c(Cl)c2)OC/C1=N\NS(=O)(=O)c1ccc(C)cc1
GROUP_LABEL: inactive
--
MOLECULE: Oc1nc(-c2ccccc2)cc(-c2ccccc2O)n1
GROUP_LABEL: inactive
--
MOLECULE: Clc1cccc(/N=C/C=C/Nc2cccc(Cl)c2)c1
GROUP_LABEL: inactive
--
MOLECULE: N#C/C(=C1C=C(Br)/C(=N\O)C=C\1Cl)c1cccc2ccccc12
GROUP_LABEL: inactive

QUERY: Per the records of this test, what outcome belongs to "N#Cc1nc(-c2ccc(-c3nc(C#N)c(N)o3)cc2)oc1N" ?
RESULT: inactive

QUERY: Please share the test call associated with O=C(CC1(O)C(=O)Nc2ccccc21)c1cccc(O)c1 (stereo unspecified) .
RESULT: inactive

QUERY: Please share the test call associated with "CCCOc1ccc(/C=C\c2cc(OC)c(OC)c(OC)c2)cc1" .
RESULT: inactive

---

Documented GI50 across a set of compounds
Tested on: MDA-MB-435
Assay: NCI tumour cell line growth inhibition, 48 h
Activity calls are given as the source filed them. Rule as the data show it: active = GI50 up to about 1.1 µM and inactive = higher.

Some solved entries appear below for comparison.
COMPOUND: CC[C@]12C=CCN3CC[C@@]4(c5cc(N=O)c(OC)cc5N(C)[C@H]4[C@@](O)(C(=O)OC)[C@@H]1OC(C)=O)[C@@H]32
GI50: 25.1 µM (inactive)
//
COMPOUND: NC(=O)C1CCN(Cc2c(Cl)c(Cl)c(CN3CCC(C(N)=O)CC3)c(Cl)c2Cl)CC1
GI50: > 100 µM (inactive)

QUERY: Annotate the compound CC(C)[Si](OC12CCC(CC1O)CC2CO)(C(C)C)C(C)C (configuration not stated) with its measured GI50.
RESULT: 16.1 µM (inactive)

QUERY: Give a short answer stating reported GI50 for "c1csc(-c2ccc(-c3cccs3)c3nsnc23)c1" .
RESULT: 31.4 µM (inactive)

---

Tested on: NCI-H460
Assay: NCI tumour cell line growth inhibition, 48 h
The source made the active and inactive calls. Cut-off read from the data, not from the text of the source: active = GI50 up to about 1.1 µM and inactive = higher.
OBSERVED_PROPERTY: GI50

MOLECULE: N#C/C(=C1C=C(Br)/C(=N\O)C=C\1Cl)c1cccc2ccccc12
TESTED_ON: NCI-H460
VALUE_REPORTED: 5.16 µM (inactive)

MOLECULE: CCc1nc(N)nc(N)c1-c1ccc(Cl)c(/N=C/N(C)C)c1
TESTED_ON: NCI-H460
VALUE_REPORTED: 5.22 µM (inactive)

MOLECULE: Cc1cccc(/N=N/c2ccc(/N=N/c3c(O)ccc4ccccc34)cc2C)c1
TESTED_ON: NCI-H460
VALUE_REPORTED: > 100 µM (inactive)

QUERY: Give the value of GI50 reported for the following: "CCOC(=O)C(C)(c1cn(C)c2ccccc12)c1cn(C)c2ccccc12"
RESULT: > 100 µM (inactive)

QUERY: Report GI50, nothing else, for this molecule: "O=C1C(c2ccc(C3=[N+]([O-])c4cc([N+](=O)[O-])ccc4C3=O)cc2)=[N+]([O-])c2cc([N+](=O)[O-])ccc21"
RESULT: > 10 µM (inactive)

QUERY: Dear colleague, please send me the reported GI50 for CCOC(=O)[C@@H]1ON2O[C@@H](OC3CCCC3(c3ccccc3)c3ccccc3)C[C@H]3OC(=O)[C@@H]1C32 (some centres not stated) when you can.
RESULT: 35.6 µM (inactive)

QUERY: Determine its reported GI50: "O=C(NCCc1ccc(F)cc1)c1cc(/C=C/c2cc(O)ccc2O)ccc1O"
RESULT: 9.75 µM (inactive)

---

System: T47D
Assay: NCI tumour cell line growth inhibition, 48 h
Activity calls are given as the source filed them. No stated cut-off is given here; in the data, active = GI50 up to about 1.1 µM and inactive = higher.
The following compounds are listed with their measured GI50 values.

QUERY: Look up GI50 of "CC(C)(C)NC(=S)N/N=C/c1ccccn1" and report it.
RESULT: < 0.01 µM (active)

QUERY: Input CC1C[C@]2(C)C(=O)Nc3ccccc3[C@@H]2Nc2ccccc21 (some centres not stated) , output reported GI50.
RESULT: 42.5 µM (inactive)

QUERY: Indicate its recorded GI50; the compound in question is COc1ccc2c(c1)C1c3ccccc3CCN1CCC2 (configuration not stated)
RESULT: > 100 µM (inactive)

QUERY: Return GI50 for the following compound: "Nc1cc(CO)cc(Nc2c3ccccc3nc3ccccc23)c1"
RESULT: 18.4 µM (inactive)

QUERY: Please list GI50 recorded for the compound "CCC1(O)C=CC(=O)C=C1"
RESULT: 22.7 µM (inactive)

---

Test system: XF498
Assay: NCI tumour cell line growth inhibition, 48 h
Active and inactive are the calls of the source. Cut-off read from the data, not from the text of the source: active = GI50 up to about 1.1 µM and inactive = higher.
OBSERVED_PROPERTY: GI50

COMPOUND: CN(C)CCNc1ccc2nnn3c4ccc(Cl)cc4c(=O)c1c23
TESTED_ON: XF498
GI50: 8.73 µM (inactive)
//
COMPOUND: OC1(C(Sc2ccccc2)Sc2ccccc2)CCCCCC1
TESTED_ON: XF498
GI50: 13.6 µM (inactive)

QUERY: Give a short answer stating reported GI50 for O=C(CC1(O)C(=O)Nc2ccccc21)c1cccc(O)c1 (centres undefined) .
RESULT: 42.5 µM (inactive)

QUERY: Note GI50 for the compound shown: "Cc1cc2c(=O)cc(-c3ccc(Cl)c(Cl)c3)oc2c(C(=O)O)c1C"
RESULT: > 100 µM (inactive)
